# Measurement Target: hAChE (Homo sapiens, UniProt P22303)
# Construct: purchased Aldrich
# Sequence (P22303 32-614): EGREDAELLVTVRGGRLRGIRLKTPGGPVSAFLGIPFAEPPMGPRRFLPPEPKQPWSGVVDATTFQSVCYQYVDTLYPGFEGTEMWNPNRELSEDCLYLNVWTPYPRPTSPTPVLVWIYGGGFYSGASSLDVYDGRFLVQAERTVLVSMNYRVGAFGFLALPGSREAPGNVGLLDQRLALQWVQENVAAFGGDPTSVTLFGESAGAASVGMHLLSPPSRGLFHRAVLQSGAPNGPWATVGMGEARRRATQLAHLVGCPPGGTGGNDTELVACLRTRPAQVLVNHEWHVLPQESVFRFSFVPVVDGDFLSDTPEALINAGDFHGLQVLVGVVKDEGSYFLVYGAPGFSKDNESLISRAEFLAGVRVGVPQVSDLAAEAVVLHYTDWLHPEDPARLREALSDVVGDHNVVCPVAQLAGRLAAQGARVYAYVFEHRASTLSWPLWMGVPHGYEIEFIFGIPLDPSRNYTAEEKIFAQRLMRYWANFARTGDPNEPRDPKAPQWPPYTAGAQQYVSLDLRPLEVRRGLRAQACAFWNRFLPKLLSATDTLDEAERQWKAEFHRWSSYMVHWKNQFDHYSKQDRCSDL
# Procedure Summary: biochemical
# Format: biochemical
IC50 values, listed per item
Endpoint: IC50 (nM)

{"Compound": "CN(C)C(=O)Oc1cccc2c1cc(C(=O)NCCO)c[n+]2C [2a, reference compound]", "Endpoint": "IC50", "Unit Of Measurement": "nM", "Recorded Result": 37.1}
{"Compound": "CCN1/C(=C/C(C)=O)Sc2ccc(OC(=O)OCCOCCNC(=O)C3=CN(C)c4cccc(OC(=O)N(C)C)c4C3)cc21", "Endpoint": "IC50", "Unit Of Measurement": "nM", "Recorded Result": 1020}
